- Tested on: Hepatitis C virus
- TEST_METHOD_NOTES: Inhibition of hepatitis C virus RNA replication in a subgenomic replicon cell line
- Format: functional, organism-based, Hepacivirus hominis
REPORTED_PROPERTY: log10 of EC50 (log10 of the value in µM)
Scale: decimal log of EC50, EC50 in µM.

Below, each entry is followed by its recorded log10 of EC50 result.
CCNC(=O)N(OC)c1ncnc2c1ncn2C1O[C@H](CO)[C@@H](O)[C@@]1(C)O (some centres undefined); 1.90
COC(=O)N(O)c1ncnc2c1ncn2C1O[C@H](CO)[C@@H](O)[C@@]1(C)O (some centres undefined); 0.48
CC1(C)OCC(CNc2ncnc3c2ncn3C2O[C@H](CO)[C@@H](O)[C@@]2(C)O)O1 (some centres undefined); 2.48
C[C@]1(O)C(n2cnc3c(NCC4CCCO4)ncnc32)O[C@H](CO)[C@H]1O (some centres undefined); 2.48
C[C@]1(O)C(n2cnc3c(C(=N)N)ncnc32)O[C@H](CO)[C@H]1O (some centres undefined); 2.00

Problem: # query: log10 of EC50 of entry C[C@]1(O)C(n2cnc3c(C(=N)NO)ncnc32)O[C@H](CO)[C@H]1O (some centres undefined)
Result: 2.00

Problem: Data request, read-out log10 of EC50, for C[C@]1(O)C(n2cnc3c(NCCC(N)=O)ncnc32)O[C@H](CO)[C@H]1O (some centres undefined)
Result: 2.18

Problem: Which log10 of EC50 reading was recorded for the compound CCOc1ncnc2c1ncn2C1O[C@H](CO)[C@@H](O)[C@@]1(C)O (some centres undefined) ?
Result: 1.11

Problem: So what's the measured log10 of EC50 for this one? C[C@]1(O)C(n2cnc3c2NCN=C3N(CCO)CCO)O[C@H](CO)[C@H]1O (some centres undefined)
Result: 1.30

---

- Tested on: Hepatitis C virus
- TEST_METHOD_NOTES: Inhibition of hepatitis C virus RNA replication in a subgenomic replicon cell line
- Type: functional, organism-based, Hepacivirus hominis
Listing of recorded log10 of EC50 by entry.
Form field - Quantity: EC50; Unit: µM; Scale: log10

C[C@]1(O)C(n2cnc3c2NCN=C3NCCO)O[C@H](CO)[C@H]1O (stereo partly specified); 1.78
CCC(=O)N(O)c1ncnc2c1ncn2C1O[C@H](CO)[C@@H](O)[C@@]1(C)O (stereo partly specified); 0.52
C[C@]1(O)C(n2cnc3c(N(O)C(=O)Nc4ccccc4)ncnc32)O[C@H](CO)[C@H]1O (stereo partly specified); 0.26

Problem: Any idea what its log10 of EC50 is? The compound is COc1ncnc2c1ncn2C1O[C@H](CO)[C@@H](O)[C@@]1(C)O (stereo partly specified)
Result: 0.95

Problem: Data request, read-out log10 of EC50, for CC(CNC1=NCNc2c1ncn2C1O[C@H](CO)[C@@H](O)[C@@]1(C)O)c1ccccc1 (stereo partly specified)
Result: 1.40

Problem: What does the data say about its log10 of EC50? Entry: CON(C)c1ncnc2c1ncn2C1O[C@H](CO)[C@@H](O)[C@@]1(C)O (stereo partly specified)
Result: 1.52

Problem: Look up log10 of EC50: CSc1cccc(Nc2ncnc3c2ncn3C2O[C@H](CO)[C@@H](O)[C@@]2(C)O)c1 (stereo partly specified)
Result: 2.48

Problem: If you can, please state the reported log10 of EC50 value of C[C@]1(O)C(n2cnc3c(N(O)C(=O)OCc4ccccc4)ncnc32)O[C@H](CO)[C@H]1O (stereo partly specified) .
Result: 1.30

Problem: Would you mind telling me what log10 of EC50 value was observed for C[C@]1(O)C(n2cnc3c2NCN=C3NOCCO)O[C@H](CO)[C@H]1O (stereo partly specified) ?
Result: 1.90

Problem: What does the data say about its log10 of EC50? Entry: COc1ncnc2c1ncn2C1O[C@H](COP(=O)(OCCSC(=O)C(C)(C)C)OCCSC(=O)C(C)(C)C)[C@@H](O)[C@@]1(C)O (stereo partly specified)
Result: -1.00

Problem: Recorded log10 of EC50 of CCNc1ncnc2c1ncn2C1O[C@H](CO)[C@@H](O)[C@@]1(C)O (stereo partly specified) , please.
Result: 0.90

Problem: log10 of EC50 lookup needed for C[C@]1(O)C(n2cnc3c(-c4ccco4)ncnc32)O[C@H](CO)[C@H]1O (stereo partly specified) , thanks.
Result: 2.44

Where these numbers come from: ChEMBL document CHEMBL1144291
